test system: HEp-2 viability, ATP luminescence; test: viability loss in HEp-2 cells – cell-based, synthesized compounds, set 8, cytotoxicity control for RSV inhibitor project, SAR follow-up (AID 504818)
Measured CC50, listed per entry.

compound	CC50
Cc1ccc(NC(=O)C2CCCN2S(=O)(=O)c2cccc3cccnc23)c(C)c1 (stereo not drawn)	33.4 µM

So, O=C(Nc1ccccc1)[C@@H]1CCCN1S(=O)(=O)c1cccc2cccnc12 ? Its CC50 was 38.4 µM

Documented CC50 of COCCCNC(=O)c1ccc(Cn2c(=O)c3ccccc3n(C)c2=O)cc1 : 15 µM

---

test system: HEp-2 viability, ATP luminescence; assay: viability loss in HEp-2 cells – cell-based, synthesized compounds, set 8, cytotoxicity control for RSV inhibitor project, SAR follow-up (AID 504818)
Measured CC50, listed per entry.

// solved cases for CC50 follow
chem.smiles	result
Cc1ccc(C(C)(C)C)cc1NC(=O)[C@@H]1CCCN1S(=O)(=O)c1cccc2cccnc12	6.2 µM
Cc1ccc(Cl)cc1NC(=O)[C@@H]1CCCN1S(=O)(=O)c1cccc2cccnc12	9.25 µM
Cc1cccc(NC(=O)[C@@H]2CCCN2S(=O)(=O)c2cccc3cccnc23)c1	20.8 µM
Cc1ccc(NC(=O)[C@@H]2CCCN2S(=O)(=O)c2cccc3cccnc23)cc1	33.1 µM
CCCn1c(=O)n(Cc2ccc(C(=O)NCCCOC)cc2)c(=O)c2ccccc21	22.8 µM
COCCCNC(=O)c1ccc(Cn2c(=O)c3ccccc3n(Cc3cc(C)on3)c2=O)cc1	7 µM
Cc1ccc(F)cc1NC(=O)[C@@H]1CCCN1S(=O)(=O)c1cccc2cccnc12	22.5 µM
Cc1cc(C)cc(NC(=O)[C@@H]2CCCN2S(=O)(=O)c2cccc3cccnc23)c1	32.2 µM

Could you now look at the following compound, please?
// CC50 lookup, compound = Cc1ccc(Cn2c(=O)n(Cc3ccc(C(=O)NC(C)(C)C)cc3)c(=O)c3ccccc32)cc1 , result: 10.2 µM

---

tested on: HEp-2 viability, ATP luminescence; test: viability loss in HEp-2 cells – cell-based, synthesized compounds, set 8, cytotoxicity control for RSV inhibitor project, SAR follow-up (AID 504818)
value.type: CC50

molecule	result
Cc1ccc(Cl)c(NC(=O)[C@@H]2CCCN2S(=O)(=O)c2cccc3cccnc23)c1	13.6 µM
CC(C)c1ccccc1NC(=O)[C@@H]1CCCN1S(=O)(=O)c1cccc2cccnc12	30.1 µM
Cc1ccc(NC(=O)C2CCCN2S(=O)(=O)c2cccc3ccccc23)c(C)c1 (centres undefined)	18.4 µM

Reported CC50 of Cc1ccc(NC(=O)[C@@H]2CCCN2S(=O)(=O)c2cccc3cccnc23)c(C)c1 : 33 µM

CC50 measured on Cc1cccc(NC(=O)[C@@H]2CCCN2S(=O)(=O)c2cccc3cccnc23)c1C = 49.5 µM

Short answer for Cc1ccc(NC(=O)[C@H]2CCCN2S(=O)(=O)c2cccc3cccnc23)c(C)c1 : CC50 was 40.9 µM

Reported CC50 ( Cc1ccc(C(C)C)cc1NC(=O)[C@@H]1CCCN1S(=O)(=O)c1cccc2cccnc12 ) = 10.6 µM

# CC50 of COCCCNC(=O)c1ccc(Cn2c(=O)c3ccc(Br)cc3n(Cc3ccc(C)cc3)c2=O)cc1 = 39 µM

Measured CC50, Cc1ccc(C(F)(F)F)cc1NC(=O)[C@@H]1CCCN1S(=O)(=O)c1cccc2cccnc12 : 3.7 µM

Data origin: PubChem BioAssay AID504818
